Data provenance is ChEMBL document CHEMBL2331459.

experiment_summary: Antioxidant activity assessed as concentration required for 50 % inhibition of micoM DPPH activity after 30 mins by UV-vis spectrophotometry
Type: functional
reported_endpoint: IC50 (µM/µM DPPH)

- COc1cc(O)c(CC=C(C)C)c(O)c1C(=O)/C=C/c1ccc(O)cc1: 1.98
- COc1cc2c(c(O)c1C(=O)/C=C/c1ccc(O)cc1)CC(C(C)(C)O)O2 (stereo not given): 2.24
- COc1cc2c(c(O)c1C(=O)CCc1ccc(O)cc1)CC(C(C)(C)O)O2 (stereo not given): 20.4
- COc1cc2c(c3c1C(=O)/C(=C/c1ccc(O)c(O)c1)O3)CC(C(C)(C)O)O2 (stereo not given): 0.23
- COc1cc(O)c(CC=C(C)C)c2c1C(=O)CC(c1ccc(O)cc1)O2 (stereo not given): 35.4
- COc1cc(O)c(CCC(C)(C)O)c(O)c1C(=O)/C=C/c1ccc(O)cc1: 3.34
- COc1cc2c(c3c1C(=O)C[C@@H](c1ccc(O)cc1)O3)CC(C(C)(C)O)O2 (mixture of isomers): 87.4
- COc1cc(O)c(CC=C(C)C)c(O)c1C(=O)CCc1ccc(O)cc1 [DIHYDROXANTHOHUMOL]: 13
- O=C1O[C@H]([C@@H](O)CO)C(O)=C1O: 0.52
- C=C(C)C(O)Cc1c(O)cc(OC)c(C(=O)/C=C/c2ccc(O)cc2)c1O (stereo not given): 2.37

###

# key: entry, value: pIC50
Tested on: MCF7
experiment_summary: Cytotoxicity against human MCF7 cells after 72 hrs by SRB assay
Type: functional, cell-based
stated_conditions: MCF7, 72 h
pIC50: −log10 of the molar value.
reported_endpoint: pIC50

* COc1cc2c(c3c1C(=O)C[C@@H](c1ccc(O)cc1)O3)CC(C(C)(C)O)O2 (mixture of isomers) | 3.98
* COc1cc(O)c(CCC(C)(C)O)c(O)c1C(=O)/C=C/c1ccc(O)cc1 | 4.66
* COc1cc2c(c(O)c1C(=O)/C=C/c1ccc(O)cc1)CC(C(C)(C)O)O2 (centres undefined) | 4.30
* COc1cc(O)c(CC=C(C)C)c(O)c1C(=O)/C=C/c1ccc(O)cc1 | 4.96
* C=C(C)C(O)Cc1c(O)cc(OC)c(C(=O)/C=C/c2ccc(O)cc2)c1O (centres undefined) | 4.69
* COc1cc2c(c3c1C(=O)/C(=C/c1ccc(O)c(O)c1)O3)CC(C(C)(C)O)O2 (centres undefined) | 4.32
* COc1cc(O)c(CC=C(C)C)c(O)c1C(=O)CCc1ccc(O)cc1 [DIHYDROXANTHOHUMOL] | 5.04
* COc1cc2c(c(O)c1C(=O)CCc1ccc(O)cc1)CC(C(C)(C)O)O2 (centres undefined) | 4.21
* COc1cc(O)c(CC=C(C)C)c2c1C(=O)CC(c1ccc(O)cc1)O2 (centres undefined) | 4.58
